Compiled from multiple publications: Kd readings for Peptidyl-prolyl cis-trans isomerase FKBP5 (Homo sapiens).

Completed entries (count: 5):
compound: CCS(=O)(=O)N[C@H]1C[C@@H]2CC[C@@H](C)[C@@](O)(O2)C(=O)C(=O)N2CCCC[C@H]2C(=O)O[C@H]([C@H](C)C[C@@H]2CC[C@@H](O)[C@H](OC)C2)CC[C@H](C)/C=C(\C)[C@@H](O)[C@@H](OC)C(=O)[C@H](C)C[C@H](C)/C=C/C=C/C=C/1C
Kd: 40 nM

compound: CO[C@@H]1C[C@H](C[C@@H](C)[C@@H]2CC(=O)[C@H](C)/C=C(\C)[C@@H](O)[C@@H](OC)C(=O)[C@H](C)C[C@H](C)/C=C/C=C/C=C(\C)C(N3CCCCS3(=O)=O)C[C@@H]3CC[C@@H](C)[C@@](O)(O3)C(=O)C(=O)N3CCCC[C@H]3C(=O)O2)CC[C@H]1O (stereo partly drawn)
Kd: 2580 nM

compound: CCOC(=O)COC1CCC(CC(C)C2CC(=O)C(C)C=C(C)C(O)C(OC)C(=O)C(C)CC(C)C=CC=CC=C(C)C(NS(=O)(=O)CCOC)CC3CCC(C)C(O)(O3)C(=O)C(=O)N3CCCCC3C(=O)O2)CC1OC (mixture of isomers)
Kd: 10 to 100 nM

compound: CO[C@@H]1C[C@H](C[C@@H](C)[C@@H]2CC(=O)[C@H](C)/C=C(\C)[C@@H](O)[C@@H](OC)C(=O)[C@H](C)C[C@H](C)/C=C/C=C/C=C(\C)[C@H](NS(=O)(=O)CC3CCCC3)C[C@@H]3CC[C@@H](C)[C@@](O)(O3)C(=O)C(=O)N3CCCC[C@H]3C(=O)O2)CC[C@H]1O
Kd: > 100 nM

compound: COCCOCCS(=O)(=O)N[C@H]1C[C@@H]2CC[C@@H](C)[C@@](O)(O2)C(=O)C(=O)N2CCCC[C@H]2C(=O)O[C@H]([C@H](C)C[C@@H]2CC[C@@H](O)[C@H](OC)C2)CC(=O)[C@H](C)/C=C(\C)[C@@H](O)[C@@H](OC)C(=O)[C@H](C)C[C@H](C)/C=C/C=C/C=C/1C
Kd: < 10 nM

Enquiry: Report Kd for CO[C@@H]1C[C@H](C[C@@H](C)[C@@H]2CC[C@H](C)/C=C(\C)[C@@H](O)[C@@H](OC)C(=O)[C@H](C)C[C@H](C)/C=C/C=C/C=C(\C)[C@H](N3CCCS3(=O)=O)C[C@@H]3CC[C@@H](C)[C@@](O)(O3)C(=O)C(=O)N3CCCC[C@H]3C(=O)O2)CC[C@H]1O tested on Peptidyl-prolyl cis-trans isomerase FKBP5 (Homo sapiens).
Return: > 10000 nM

Enquiry: What measured Kd is associated with COCCS(=O)(=O)NC1CC2CCC(C)C(O)(O2)C(=O)C(=O)N2CCCCC2C(=O)OC(C(C)CC2CCC(OCCCO)C(OC)C2)CC(=O)C(C)C=C(C)C(O)C(OC)C(=O)C(C)CC(C)C=CC=CC=C1C (mixture of isomers) on Peptidyl-prolyl cis-trans isomerase FKBP5 (Homo sapiens)?
Return: 10 to 100 nM

Enquiry: Reported Kd for Peptidyl-prolyl cis-trans isomerase FKBP5 (Homo sapiens), given CO[C@@H]1C[C@H](C[C@@H](C)[C@@H]2CC(=O)[C@H](C)/C=C(\C)[C@@H](O)[C@@H](OC)C(=O)[C@H](C)C[C@H](C)/C=C/C=C/C=C(\C)[C@@H](OCC3CC3)C[C@@H]3CC[C@@H](C)[C@@](O)(O3)C(=O)C(=O)N3CCCC[C@H]3C(=O)O2)CC[C@H]1OCCCS(C)(=O)=O ?
Return: > 100 nM

Enquiry: Lookup: Kd / Peptidyl-prolyl cis-trans isomerase FKBP5 (Homo sapiens) / COC1CC(CC(C)C2CC(=O)C(C)C=C(C)C(O)C(OC)C(=O)C(C)CC(C)C=CC=CC=C(C)C(NS(=O)(=O)C3CC3)CC3CCC(C)C(O)(O3)C(=O)C(=O)N3CCCCC3C(=O)O2)CCC1O (mixture of isomers)
Return: 10 to 100 nM
